Provide the recorded pKi for the entries that follow.
# Target of assay: hNOX enzymes
# Assay overview: ROS production measurement on hNOX membranes (Amplex Red fluorescence assay, assay 1)
# Assay conditions: membranes from CHO or HEK cells overexpressing hNox enzymes; Nox isoform not stated; non linear regression; read-out: Nox inhibitory constant Ki
Answers are plain numbers, as −log10 of the molar value.

Consider the worked cases shown below.
Ask | I have this compound here, COc1cncc(-c2cc3cc(-c4ccc(N5CCS(=O)(=O)CC5)nc4)[nH]c3cc2Cl)c1 [Example 49] , and I need its recorded pKi.
Reply | 6.98

Ask | Try this compound next: COc1cncc(-c2ccc3[nH]c(-c4ccnc(N5CCOCC5)c4)cc3c2)c1 [Example 23]
Reply | 6.53

The following compounds each have a reported value; give each one's pKi.
1. COc1cncc(-c2ccc3[nH]c(-c4ccnc(C5CC5)c4)cc3c2)c1 [Example 19]
2. COc1cncc(-c2ccc3c(cc(-c4cnc5c(c4)OCCN5C)n3C)c2Cl)c1 [Example 119]
3. Cc1cc(-c2cc3cc(-c4cncc(N(C)C)c4)ccc3[nH]2)ccn1 [Example 9]

Reply |
6.64
6.65
6.09

The following compounds each have a reported value; give each one's pKi.
1. COc1cncc(-c2ccc3[nH]c(-c4ccnc(N5CC(O)C5)c4)cc3c2)c1 [Example 20]
2. COc1cncc(-c2ccc3[nH]c(-c4ccncn4)cc3c2)c1 [Example 109]
3. COc1cncc(-c2cc3cc(-c4ccc(C(O)C5COC5)nc4)[nH]c3cc2Cl)c1 (stereo not drawn) [Example 54]
4. COc1cncc(-c2cc3cc(-c4ccc(N5CC(C(=O)O)C5)nc4)[nH]c3cc2Cl)c1 [Example 39]
5. COCCn1c(-c2ccncc2)cc2cc(-c3ccncc3)ccc21 [Example 113]
6. Clc1cncc(-c2cc3cc(-c4ccc(N5CCOCC5)nc4)[nH]c3cc2Cl)c1 [Example 62]
7. Cc1c(-c2ccncc2)ccc2[nH]c(-c3ccncc3)cc12 [Example 69]
8. COc1cncc(-c2ccc3[nH]c(-c4ccnc(OC)c4)cc3c2)c1 [Example 14]

Reply |
[6.80, 6.09, 6.38, 6.46, 6.01, 6.87, 6.22, 7.39]
